Numbers sourced from the supplement of paper PMC10724198.

system: Saccharomyces cerevisiae; assay: protein stability index of tFT-peptide fusion (C-terminal peptide) (PSI (0-1 scale)); higher = more stable (slower turnover); conditions: genetic background: wild type; temperature: 30 C
Quick rule: protein stability index of at least 0.7 means 1 (yes), below that means 0 (no).

RESIDUE_STRING: SVQICGFWLILG
CAT: 0 (no)
--
RESIDUE_STRING: AQTEADGRAHDP
CAT: 0 (no)
--
RESIDUE_STRING: CVDGLFCCLVFW
CAT: 0 (no)
--
RESIDUE_STRING: TSPPPGTHTLQP
CAT: 0 (no)
--
RESIDUE_STRING: LPRALLLHGHRP
CAT: 1 (yes)
--
RESIDUE_STRING: GKGGITGWCCHH
CAT: 0 (no)
--
RESIDUE_STRING: LTLLFLHPFPST
CAT: 1 (yes)
--
RESIDUE_STRING: AGAATGAGGLQG
CAT: 0 (no)
--
RESIDUE_STRING: MVWCVSRGEGPV
CAT: 1 (yes)
--
RESIDUE_STRING: PLLPSPAPLHPP
CAT: 0 (no)
--
RESIDUE_STRING: QYWIYTGLKSLS
CAT: 0 (no)
--
RESIDUE_STRING: SGVLKHLRKESS
CAT: 0 (no)
--
RESIDUE_STRING: LWWASRLRVPTP
CAT: 0 (no)
--
RESIDUE_STRING: SPPPPSRLPPPP
CAT: 1 (yes)
--
RESIDUE_STRING: AIPAVRFCRTLR
CAT: 0 (no)
--
RESIDUE_STRING: GGGGGFGVVRVG
CAT: 0 (no)
--
RESIDUE_STRING: DALHPCIIYLTC
CAT: 0 (no)
--
RESIDUE_STRING: LSPLPSPLILVV
CAT: 0 (no)
--
RESIDUE_STRING: VCVRLVHCLVLV
CAT: 0 (no)
--
RESIDUE_STRING: GGCSGGNGGCDG
CAT: 0 (no)
--
RESIDUE_STRING: SLLSSPFPCLRQ
CAT: 1 (yes)
--
RESIDUE_STRING: TDWCSYWSGWVV
CAT: 1 (yes)
--
RESIDUE_STRING: FLAGGRFLCIVV
CAT: 0 (no)
--
RESIDUE_STRING: LDSPGIDRRSFM
CAT: 1 (yes)
--
RESIDUE_STRING: PLNQSYFVFSGN
CAT: 1 (yes)
--
RESIDUE_STRING: PPPPLSLPPVPL
CAT: 1 (yes)
--
RESIDUE_STRING: RLLYGIYDHGRQ
CAT: 1 (yes)
--
RESIDUE_STRING: FFLPTLQLTPYL
CAT: 1 (yes)
--
RESIDUE_STRING: QYVYIPGLSNLC
CAT: 0 (no)

----------
test system: Saccharomyces cerevisiae; test: protein stability index of tFT-peptide fusion (C-terminal peptide) (PSI (0-1 scale)); higher = more stable (slower turnover); settings: genetic background: wild type; temperature: 30 C
The entries below come with measured protein stability index values attached.

RESIDUE_STRING: ILGAYLIDCVCC [YGL069C C-terminal 12 aa]
protein stability index: 0.644

RESIDUE_STRING: ERGMYRYYSLKA [LUG1 C-terminal 12 aa]
protein stability index: 0.621

RESIDUE_STRING: TKNLVPGFSDLM [SEC61 C-terminal 12 aa]
protein stability index: 0.676

RESIDUE_STRING: LMPSASLQDFYG [VID27 C-terminal 12 aa]
protein stability index: 0.726

RESIDUE_STRING: VKKNKPSIESKC [GSH1 C-terminal 12 aa]
protein stability index: 0.762

RESIDUE_STRING: NPSILGDFTRED [RTR1 C-terminal 12 aa]
protein stability index: 0.715

RESIDUE_STRING: VNHNWYSIYEST [TFC3 C-terminal 12 aa]
protein stability index: 0.681

RESIDUE_STRING: ANESLEEDLNLD [YBR137W C-terminal 12 aa]
protein stability index: 0.661

RESIDUE_STRING: KSVPILLPQVCM [YIL059C C-terminal 12 aa]
protein stability index: 0.578

RESIDUE_STRING: MDETIAPLVGCL [YEL008W C-terminal 12 aa]
protein stability index: 0.701

RESIDUE_STRING: QNRFISINKIFW [YDR133C C-terminal 12 aa]
protein stability index: 0.667

RESIDUE_STRING: MDLEKDRYYDLS [DAS2 C-terminal 12 aa]
protein stability index: 0.68

RESIDUE_STRING: VESPTLFCVCTQ [YPR170C C-terminal 12 aa]
protein stability index: 0.66

RESIDUE_STRING: VPLIIDSSGSAN [FTH1 C-terminal 12 aa]
protein stability index: 0.68

RESIDUE_STRING: ENRTMFLSKGKS [YPR172W C-terminal 12 aa]
protein stability index: 0.667

RESIDUE_STRING: PVRHQTGMHFCI [YHR032W-A C-terminal 12 aa]
protein stability index: 0.682

RESIDUE_STRING: PTPPTPPTPPQQ [ECM19 C-terminal 12 aa]
protein stability index: 0.687

RESIDUE_STRING: IITGSTSTSSSN [MED8 C-terminal 12 aa]
protein stability index: 0.707

RESIDUE_STRING: FRGKLFLDSITD [MLC2 C-terminal 12 aa]
protein stability index: 0.73

RESIDUE_STRING: STAVRSIDALKN [HSP31 C-terminal 12 aa]
protein stability index: 0.687

RESIDUE_STRING: PVVFHSGPVVWK [YLR415C C-terminal 12 aa]
protein stability index: 0.697

RESIDUE_STRING: GARPPKNEARII [YBL036C C-terminal 12 aa]
protein stability index: 0.677

RESIDUE_STRING: KKDKPEGWDRLP [KTR6 C-terminal 12 aa]
protein stability index: 0.711

RESIDUE_STRING: LEELDIEEEYSD [ACL4 C-terminal 12 aa]
protein stability index: 0.673

RESIDUE_STRING: PIKLKSDEEMII [YFL040W C-terminal 12 aa]
protein stability index: 0.672

RESIDUE_STRING: AKRDILPSPVSV [LPP1 C-terminal 12 aa]
protein stability index: 0.646

RESIDUE_STRING: AGIHPDRAKLLK [NOP6 C-terminal 12 aa]
protein stability index: 0.693

RESIDUE_STRING: FTGGDILPPEFN [SPS18 C-terminal 12 aa]
protein stability index: 0.739

RESIDUE_STRING: SSSSFISYPPQR [MAD3 C-terminal 12 aa]
protein stability index: 0.698

RESIDUE_STRING: EWVVPEHMLGPK [FUM1 C-terminal 12 aa]
protein stability index: 0.739

RESIDUE_STRING: RHSCGRQMRVLA [AUA1 C-terminal 12 aa]
protein stability index: 0.248

RESIDUE_STRING: IKELENSRHEQS [MNN1 C-terminal 12 aa]
protein stability index: 0.687

RESIDUE_STRING: KALIQRKGGKLE [RPL26A C-terminal 12 aa]
protein stability index: 0.688

RESIDUE_STRING: AFTRRRFMNKSL [ARC18 C-terminal 12 aa]
protein stability index: 0.485

RESIDUE_STRING: DMGKNLLQNKKF [ERG2 C-terminal 12 aa]
protein stability index: 0.695

RESIDUE_STRING: CHLLFGTHKKTL [YBL071C-B C-terminal 12 aa]
protein stability index: 0.692

RESIDUE_STRING: LALNRDDPPDML [PEA2 C-terminal 12 aa]
protein stability index: 0.755

RESIDUE_STRING: QELLKLLENEKK [SLK19 C-terminal 12 aa]
protein stability index: 0.726

RESIDUE_STRING: FSDFLDSNRITQ [LDB19 C-terminal 12 aa]
protein stability index: 0.723

RESIDUE_STRING: LRSKGKRYDTRS [YJR018W C-terminal 12 aa]
protein stability index: 0.708

RESIDUE_STRING: EAQLSCSEESLA [COS1 C-terminal 12 aa]
protein stability index: 0.683

RESIDUE_STRING: IVLPMIKDYLFS [HLJ1 C-terminal 12 aa]
protein stability index: 0.702

RESIDUE_STRING: PPSDPSSIKIRN [KIN28 C-terminal 12 aa]
protein stability index: 0.729

RESIDUE_STRING: GTAASEPTPITK [ATP15 C-terminal 12 aa]
protein stability index: 0.681

RESIDUE_STRING: YAVFTVLFSIIF [SPS2 C-terminal 12 aa]
protein stability index: 0.295

RESIDUE_STRING: RHICVGAKLCKF [MCH4 C-terminal 12 aa]
protein stability index: 0.818

RESIDUE_STRING: VERNHPVITNIS [YCR087W C-terminal 12 aa]
protein stability index: 0.733

RESIDUE_STRING: ITERLFNAALDD [YBR232C C-terminal 12 aa]
protein stability index: 0.708

RESIDUE_STRING: YNPPDYEPEAKK [PHM7 C-terminal 12 aa]
protein stability index: 0.639
